Tested on: FaDu (head and neck squamous carcinoma cell line)
Experiment: MTT cell viability assay, FaDu
Type: cell-based, human
Details: Homo sapiens, FaDu, 48 h, MTT, 48 h, values in nM; read-out: IC50 in FaDu cells
value-type: IC50 (nM)
Report as a plain number; the unit nM is understood.

[ask] Request the reported IC50 associated with O=C(NCCCCCCCCCCNC(=O)c1cc2ccccc2o1)c1cc2ccccc2o1 [Compound 21e]
[reply] 697

* * *

Test system: MCF 10A (normal mammary epithelial cell)
Experiment: MTT cell viability assay, MCF 10A
Type: cell-based
Settings: Homo sapiens, 48 h, normal cells, read-out: Antiproliferative Activity IC50 ± SEM, MCF 10A
pIC50: −log10 of the molar value.
value-type: pIC50

Take a look at these entries with their results.
O=C(/C=C/c1ccccc1)NCCCCCCCCNC(=O)/C=C/c1ccccc1 [Compound 9d] | < 4.70
O=C(/C=C/c1ccccc1)NCCOCCOCCNC(=O)/C=C/c1ccccc1 [Compound 9j] | < 4.70
Cc1nc(C)c(CN(CCCCCCCCN(Cc2nc(C)c(C)nc2C)Cc2nc(C)c(C)nc2C)Cc2nc(C)c(C)nc2C)nc1C [Compound 6e] | 4.07

[ask] Request the reported pIC50 associated with Cc1nc(C)c(CN(CCCN(Cc2nc(C)c(C)nc2C)Cc2nc(C)c(C)nc2C)Cc2nc(C)c(C)nc2C)nc1C [Compound 6b]
[reply] < 4.00

[ask] Item under review: O=C(NCCCCCCCCCCNC(=O)c1cc2ccccc2oc1=O)c1cc2ccccc2oc1=O [Compound 20e] . Reported pIC50?
[reply] < 4.70

[ask] Find the recorded pIC50 belonging to COc1cc(/C=C/C(=O)NCCCCCCCCCCNC(=O)/C=C/c2cc(OC)c(OC)c(OC)c2)cc(OC)c1OC [Compound 29e] and report it.
[reply] < 4.70

[ask] Name the reported pIC50 value associated with the compound O=C(/C=C/c1ccccc1)NCCCCCCCCCCNC(=O)/C=C/c1ccccc1 [Compound 9e]
[reply] < 4.00

[ask] # pIC50 lookup, item Cc1nc(C)c(C(=O)NCCCCCCCCCCCCNC(=O)c2nc(C)c(C)nc2C)nc1C [Compound 8f]
[reply] 7.29

* * *

Recorded SI: selectivity index by entry
System: FaDu (head and neck squamous carcinoma cell line)
Assay: MTT cell viability assay, FaDu
Type: cell-based, human
Conditions: SI = IC50 (MCF 10A)/IC50 (FaDu)

[ask] For Cn1cc(C(=O)NCCCCCCCCCCNC(=O)c2cn(C)c3ccccc23)c2ccccc21 [Compound 23e] , what is its reported SI: selectivity index?
[reply] >31.35

[ask] Value lookup for SI: selectivity index; key = COc1cc(/C=C/C(=O)NCCCCCCCCCCNC(=O)/C=C/c2cc(OC)c(OC)c(OC)c2)cc(OC)c1OC [Compound 29e]
[reply] >3.95

[ask] # query: SI: selectivity index of entry Nc1ccc(C(=O)NCCCCCCCCCCNC(=O)c2ccc(N)cc2)cc1 [Compound 31e]
[reply] >3.58

[ask] Report SI: selectivity index for `O=C(/C=C/c1ccccc1)NCCCCCCCCCCCCNC(=O)/C=C/c1ccccc1` please.
[reply] >740.74

[ask] Data request, read-out SI: selectivity index, for `Cc1nc(C)c(C(=O)NCCCCCCCCCCCCNC(=O)c2nc(C)c(C)nc2C)nc1C`
[reply] 0.29

[ask] For O=C(NCCCCCCCCCCNC(=O)c1cnc2ccccc2c1)c1cnc2ccccc2c1 [Compound 17e] , what is its reported SI: selectivity index?
[reply] >84.75

[ask] // lookup SI: selectivity index for O=C(NCCCCCCCCCCNC(=O)c1ccccn1)c1ccccn1 [Compound 15e, N,N′-(Decane-1,10-Diyl)Dipicolinamide]
[reply] 6.18

[ask] Which SI: selectivity index reading was recorded for the compound O=C(/C=C/c1ccc(Cl)cc1)NCCCCCCCCCCNC(=O)/C=C/c1ccc(Cl)cc1 [Compound 25e] ?
[reply] >357.14

* * *

Below, each of the compounds is paired with its reported pIC50 value.
Tested on: MCF 10A (normal mammary epithelial cell)
Experiment: MTT cell viability assay, MCF 10A
Format: cell-based
Details: Homo sapiens, 48 h, normal cells, read-out: Antiproliferative Activity IC50 ± SEM, MCF 10A
pIC50: −log10 of the molar value.

Solved cases (5 shown):
Cc1nc(C)c(CN(CCO)Cc2nc(C)c(C)nc2C)nc1C [Compound 6i] | < 4.00
Cc1nc(C)c(C(=O)NCCCCNC(=O)c2nc(C)c(C)nc2C)nc1C [Compound 8b] | < 4.00
COc1ccc(/C=C/C(=O)NCCCCCCCCCCNC(=O)/C=C/c2ccc(OC)c(OC)c2)cc1OC [Compound 27e] | < 4.70
Cn1cc(C(=O)NCCCCCCCCCCNC(=O)c2cn(C)c3ccccc23)c2ccccc21 [Compound 23e] | < 4.70
COc1ccc(C(=O)NCCCCCCCCCCNC(=O)c2ccc(OC)c(OC)c2OC)c(OC)c1OC [Compound 35e] | < 4.70

[ask] pIC50 for COc1cc(C(=O)NCCCCCCCCCCNC(=O)c2cc(OC)c(OC)c(OC)c2)cc(OC)c1OC [Compound 34e] ?
[reply] < 4.70

[ask] Recorded pIC50 of O=C(/C=C/c1ccccc1)OCCOCCOCCOC(=O)/C=C/c1ccccc1 [Compound 9l] , please.
[reply] < 4.70

[ask] Could you tell me which pIC50 is on file for COc1cccc2c1C(=O)c1c(O)c3c(c(O)c1C2=O)C[C@@](O)(C(=O)CO)C[C@@H]3O[C@H]1C[C@H](N)[C@H](O)[C@H](C)O1 [DOX, doxorubicin, reference compound] ?
[reply] 6.26

[ask] Can you share its pIC50? I mean this compound: Cc1nc(C)c(CN(CCCCCCN(Cc2nc(C)c(C)nc2C)Cc2nc(C)c(C)nc2C)Cc2nc(C)c(C)nc2C)nc1C [Compound 6d]
[reply] < 4.00

[ask] Record request: pIC50 value, item O=C(NCCCCCCCCCCNC(=O)c1ccncc1)c1ccncc1 [Compound 13e, N,N′-(Decane-1,10-Diyl)Diisonicotinamide]
[reply] < 4.00

[ask] Can you share its pIC50? I mean this compound: O=C(NCCCCCCCCCCNC(=O)c1ccc2nc[nH]c2c1)c1ccc2nc[nH]c2c1 [Compound 19e]
[reply] < 4.70

[ask] Item under review: COc1cc(/C=C/C(=O)NCCCCCCCCCCNC(=O)/C=C/c2cc(OC)c(O)c(OC)c2)cc(OC)c1O [Compound 28e] . Reported pIC50?
[reply] < 4.70

[ask] Recorded pIC50 for O=C(NCCCCCCCCCCNC(=O)c1ccccc1)c1ccccc1 [Compound 11e, N,N′-(Decane-1,10-Diyl)Dibenzamide] , please?
[reply] 4.09

[ask] Which pIC50 reading was recorded for the compound O=C(NCCCCCCCCCCNC(=O)c1ccc2ccccc2c1)c1ccc2ccccc2c1 [Compound 12e] ?
[reply] < 4.00

[ask] What does the record list as pIC50 for O=C(NCCCCCCCCCCNC(=O)c1ccc2cc[nH]c2c1)c1ccc2cc[nH]c2c1 [Compound 24e] ?
[reply] < 4.70

* * *

System: HeLa (cervical cancer cell line)
Assay: MTT cell viability assay, HeLa
Format: cell-based
Conditions: Homo sapiens, 48 h, read-out: Antiproliferative Activity IC50 ± SEM, HeLa
pIC50: −log10 of the molar value.
value-type: pIC50

COc1cc(/C=C/C(=O)NCCCCCCCCCCNC(=O)/C=C/c2cc(OC)c(O)c(OC)c2)cc(OC)c1O [Compound 28e] | < 4.70

[ask] // returns reported pIC50 for input `O=C(/C=C/c1ccccc1)OCCOCCOCCOCCOC(=O)/C=C/c1ccccc1`
[reply] < 4.70

[ask] Recorded pIC50 of O=C(NCCCCCCCCCCNC(=O)c1ccco1)c1ccco1 [Compound 14e] , please.
[reply] < 4.00

[ask] Which pIC50 value is on record for `Cc1nc(C)c(C(=O)NCCCCCCCCCCCCNC(=O)c2nc(C)c(C)nc2C)nc1C` ?
[reply] 5.30

* * *

Test system: MCF 10A (normal mammary epithelial cell)
Experiment: MTT cell viability assay, MCF 10A
Format: cell-based
Details: Homo sapiens, 48 h, normal cells, read-out: Antiproliferative Activity IC50 ± SEM, MCF 10A
value-type: pIC50
Recall that pIC50 is obtained by taking minus log10 of the concentration measured in molar.

Cc1nc(C)c(CN(CCCCCCCCCCN(Cc2nc(C)c(C)nc2C)Cc2nc(C)c(C)nc2C)Cc2nc(C)c(C)nc2C)nc1C | 4.89

[ask] Which measured pIC50 belongs to `Cc1nc(C)c(C(=O)NCCCCCCCCCCNC(=O)c2nc(C)c(C)nc2C)nc1C` , tested on MCF 10A (normal mammary epithelial cell)?
[reply] 7.33

* * *

System: FaDu (head and neck squamous carcinoma cell line)
Experiment: MTT cell viability assay, FaDu
Format: cell-based, human
Settings: Homo sapiens, FaDu; MTT, 48 h; read-out: Antiproliferative Activity IC50 ± SEM, FaDu
Method: The tested cells were obtained from Shanghai Institute of Biochemistry and Cell Biology of the Chinese Academy of Sciences (Shanghai, China). […] The growth-inhibitory effects against HeLa, Hep G2, MCF-7, FaDu, and A549 cancer cells and normal cell lines MCF 10A were determined by MTT assay. […] Plates were read on a microplate reader (Thermo Varioskan Flash 3001) at 490 nm. […]
value-type: IC50
Give the number first and the unit second.

[ask] Query (compound): COc1cccc2c1C(=O)c1c(O)c3c(c(O)c1C2=O)C[C@@](O)(C(=O)CO)C[C@@H]3O[C@H]1C[C@H](N)[C@H](O)[C@H](C)O1 [DOX, doxorubicin, reference compound] ; field requested: IC50
[reply] 1270 nM
